The molecules listed here are annotated with their pIC50.
- target.of.assay: UniProt:P08908
- Sequence (P08908 1-422): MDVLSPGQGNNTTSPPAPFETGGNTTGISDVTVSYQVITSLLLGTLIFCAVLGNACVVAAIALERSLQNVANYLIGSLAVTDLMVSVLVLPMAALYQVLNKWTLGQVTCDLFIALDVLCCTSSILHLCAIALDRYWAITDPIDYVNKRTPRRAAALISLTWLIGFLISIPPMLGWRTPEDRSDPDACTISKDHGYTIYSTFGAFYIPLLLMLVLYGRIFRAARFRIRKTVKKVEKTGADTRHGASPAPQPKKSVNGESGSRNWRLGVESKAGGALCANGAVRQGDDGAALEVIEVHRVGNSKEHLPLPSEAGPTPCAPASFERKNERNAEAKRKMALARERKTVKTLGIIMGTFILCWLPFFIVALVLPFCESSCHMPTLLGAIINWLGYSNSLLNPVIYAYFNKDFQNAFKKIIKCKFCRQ
pIC50: −log10 of the molar value.

{"molecule": "Cc1ccc2c3c(ccc2n1)OC[C@H](CNCCCc1csc2ccc(Cl)cc12)O3", "pIC50": 7.16}
{"molecule": "Cc1ccc2c3c(ccc2n1)OCC(CN(C)CCCc1c[nH]c2ccc(F)cc12)O3 (stereo not shown)", "pIC50": 7.13}
{"molecule": "Cc1ccc2c3c(ccc2n1)OCC(CNCCCc1c[nH]c2c(F)cc(F)cc12)O3 (stereo not shown)", "pIC50": 7.19}
{"molecule": "Cc1ccc2c3c(ccc2n1)OCC(CNC(C)CCc1c[nH]c2ccc(F)cc12)O3 (single isomer, unassigned; isomer a) [Example 11 Isomer A]", "pIC50": 7.56}

====

Recorded measurements of melting point, one per entry
Where a name gives a salt, the structure may show the parent alone.

{"compound": "Cc1ccc2c3c(ccc2n1)OCC(CN(C)CCCCc1cn(C)c2ccc(F)cc12)O3 (stereo not shown) (as salt: hydrochloride)", "melting point": "275 to 276 °C"}
{"compound": "Cc1ccc2c3c(ccc2n1)OCC(CNCCCc1c[nH]c2c(F)cccc12)O3 (stereo not shown) (as salt: fumarate)", "melting point": "142 to 150 °C"}
{"compound": "Cc1ccc2c3c(ccc2n1)OCC(CNCCCc1c[nH]c2ccccc12)O3 (stereo not shown) (as salt: fumarate)", "melting point": "202 to 203 °C"}
{"compound": "Cc1ccc2c3c(ccc2n1)OCC(CNCCCc1cn(C)c2ccc(F)cc12)O3 (stereo not shown) (as salt: fumarate)", "melting point": "156 to 161 °C"}

====

- target.of.assay: cloned human 5HT1A receptors (Homo sapiens)
- Construct: expressed in transfected cells
- protocol.details: 35S-GTPγS binding assay, membranes containing cloned human 5HT1A receptors
- Assay type: biochemical
- measurement.conditions: maximum inhibitory effect, read-out: 5-HT1A Function (Imax)

{"compound": "COc1ccc2[nH]cc(CCNCC3COc4ccc5nc(C)ccc5c4O3)c2c1 (stereo not drawn) [Example 1]", "target.of.assay": "cloned human 5HT1A receptors (Homo sapiens)", "Emax (%)": 80.3}
{"compound": "Cc1ccc2c3c(ccc2n1)OCC(CN(C)CCCCc1c[nH]c2ccc(F)cc12)O3 (stereo not drawn) [Example 43]", "target.of.assay": "cloned human 5HT1A receptors (Homo sapiens)", "Emax (%)": 100}
{"compound": "Cc1ccc2c3c(ccc2n1)OCC(CNCCCn1ccc2ccc(F)cc21)O3 (stereo not drawn) [Example 33]", "target.of.assay": "cloned human 5HT1A receptors (Homo sapiens)", "Emax (%)": 73.5}
{"compound": "Cc1ccc2c3c(ccc2n1)OC[C@H](CN(C)CCCc1csc2ccccc12)O3 [Example 22]", "target.of.assay": "cloned human 5HT1A receptors (Homo sapiens)", "Emax (%)": 85.5}
{"compound": "Cc1ccc2c3c(ccc2n1)OC[C@H](CNCCCc1csc2ccc(F)cc12)O3 [Example 51]", "target.of.assay": "cloned human 5HT1A receptors (Homo sapiens)", "Emax (%)": 82}
{"compound": "Cc1ccc2c3c(ccc2n1)OCC(CNCCCc1c[nH]c2c(F)cccc12)O3 (stereo not drawn) [Example 8]", "target.of.assay": "cloned human 5HT1A receptors (Homo sapiens)", "Emax (%)": 94.1}
{"compound": "Cc1ccc2c3c(ccc2n1)OCC(CN(C)CCCc1c[nH]c2ccc(F)cc12)O3 (stereo not drawn) [Example 7]", "target.of.assay": "cloned human 5HT1A receptors (Homo sapiens)", "Emax (%)": 100}
{"compound": "Cc1ccc2c3c(ccc2n1)OC[C@H](CN(C)CCCc1c[nH]c2ccc(C#N)cc12)O3 [Example 32]", "target.of.assay": "cloned human 5HT1A receptors (Homo sapiens)", "Emax (%)": 100}
{"compound": "Cc1ccc2c3c(ccc2n1)OCC(CN(C)CCCCn1ccc2ccc(F)cc21)O3 (stereo not drawn) [Example 47]", "target.of.assay": "cloned human 5HT1A receptors (Homo sapiens)", "Emax (%)": 75.2}
{"compound": "Cc1ccc2c3c(ccc2n1)OCC(CNCCCCc1cn(C)c2ccc(F)cc12)O3 (stereo not drawn) [Example 35]", "target.of.assay": "cloned human 5HT1A receptors (Homo sapiens)", "Emax (%)": 78.9}
{"compound": "Cc1ccc2c3c(ccc2n1)OC[C@H](CNCCCCc1csc2ccc(Cl)cc12)O3 [Example 49]", "target.of.assay": "cloned human 5HT1A receptors (Homo sapiens)", "Emax (%)": 33}
{"compound": "Cc1ccc2c3c(ccc2n1)OCC(CNCCCc1cn(C)c2c(F)cc(F)cc12)O3 (stereo not drawn) [Example 26]", "target.of.assay": "cloned human 5HT1A receptors (Homo sapiens)", "Emax (%)": 90.2}
{"compound": "Cc1ccc2c3c(ccc2n1)OCC(CNCCc1c[nH]c2ccc(F)cc12)O3 (stereo not drawn) [Example 4]", "target.of.assay": "cloned human 5HT1A receptors (Homo sapiens)", "Emax (%)": 58}
{"compound": "Cc1ccc2c3c(ccc2n1)OC[C@H](CNCCCc1csc2ccccc12)O3 [Example 20]", "target.of.assay": "cloned human 5HT1A receptors (Homo sapiens)", "Emax (%)": 100}
{"compound": "CCN(CCCc1c[nH]c2ccc(F)cc12)CC1COc2ccc3nc(C)ccc3c2O1 (stereo not drawn) [Example 25]", "target.of.assay": "cloned human 5HT1A receptors (Homo sapiens)", "Emax (%)": 94}
{"compound": "Cc1ccc2c3c(ccc2n1)OCC(CN(C)CCCCc1cn(C)c2ccc(F)cc12)O3 (stereo not drawn) [Example 44]", "target.of.assay": "cloned human 5HT1A receptors (Homo sapiens)", "Emax (%)": 100}
{"compound": "Cc1nc2ccc3c(c2o1)O[C@@H](CNCCCc1c[nH]c2ccc(F)cc12)CO3 [Example 23]", "target.of.assay": "cloned human 5HT1A receptors (Homo sapiens)", "Emax (%)": 85.8}
{"compound": "CN(CCCc1c[nH]c2ccc(F)cc12)CC1COc2ccc3ncccc3c2O1 (stereo not drawn) [Example 15]", "target.of.assay": "cloned human 5HT1A receptors (Homo sapiens)", "Emax (%)": 100}
{"compound": "Cc1ccc2c3c(ccc2n1)OCC(CNCCCc1cn(C)c2ccc(F)cc12)O3 (stereo not drawn) [Example 12]", "target.of.assay": "cloned human 5HT1A receptors (Homo sapiens)", "Emax (%)": 81.6}
{"compound": "Cc1ccc2c3c(ccc2n1)OCC(CNCCCc1c[nH]c2ccc(C#N)cc12)O3 (stereo not drawn) [Example 29]", "target.of.assay": "cloned human 5HT1A receptors (Homo sapiens)", "Emax (%)": 94}
{"compound": "CCCN(CCCc1c[nH]c2ccc(F)cc12)CC1COc2ccc3nc(C)ccc3c2O1 (stereo not drawn) [Example 45]", "target.of.assay": "cloned human 5HT1A receptors (Homo sapiens)", "Emax (%)": 100}
{"compound": "Cc1ccc2c3c(ccc2n1)OCC(CN(C)CCCc1c[nH]c2c(F)cc(F)cc12)O3 (stereo not drawn) [Example 16]", "target.of.assay": "cloned human 5HT1A receptors (Homo sapiens)", "Emax (%)": 100}
{"compound": "Cc1nc2ccc3c(c2o1)O[C@@H](CNCCCc1c[nH]c2ccc(C#N)cc12)CO3 [Example 30]", "target.of.assay": "cloned human 5HT1A receptors (Homo sapiens)", "Emax (%)": 73.1}
{"compound": "Fc1ccc2[nH]cc(CCCNC[C@H]3COc4ccc5ncccc5c4O3)c2c1 [Example 14]", "target.of.assay": "cloned human 5HT1A receptors (Homo sapiens)", "Emax (%)": 100}
{"compound": "Cc1ccc2c3c(ccc2n1)OC[C@H](CNCCCCc1c[nH]c2ccc(C#N)cc12)O3 [Example 39]", "target.of.assay": "cloned human 5HT1A receptors (Homo sapiens)", "Emax (%)": 78.5}
{"compound": "Cc1ccc2c3c(ccc2n1)OCC(CNCCCc1c[nH]c2c(F)cc(F)cc12)O3 (stereo not drawn) [Example 13]", "target.of.assay": "cloned human 5HT1A receptors (Homo sapiens)", "Emax (%)": 95}
{"compound": "Cc1ccc2c3c(ccc2n1)OCC(CNCCCCc1c[nH]c2ccccc12)O3 (stereo not drawn) [Example 9]", "target.of.assay": "cloned human 5HT1A receptors (Homo sapiens)", "Emax (%)": 95.2}
{"compound": "Cc1ccc2c3c(ccc2n1)OC[C@H](CNCCc1coc2ccccc12)O3 [Example 17]", "target.of.assay": "cloned human 5HT1A receptors (Homo sapiens)", "Emax (%)": 78}
{"compound": "Cc1ccc2c3c(ccc2n1)OC[C@H](CN(C)CCCn1ccc2c(F)cccc21)O3 [Example 48]", "target.of.assay": "cloned human 5HT1A receptors (Homo sapiens)", "Emax (%)": 100}
{"compound": "Cc1ccc2c3c(ccc2n1)OCC(CNCCCn1ccc2c(F)cccc21)O3 (stereo not drawn) [Example 46]", "target.of.assay": "cloned human 5HT1A receptors (Homo sapiens)", "Emax (%)": 85.6}
